Known pKd of a selection of binders
# target.or.system: T1, human FcRH5 protein fragment (soluble) (human, UniProt Q96RD9 16-851)
# T1 construct: whole entry named; also called soluble human FcRH5; Human FcRH5 (BIACORE analyte)
# T1 sequence: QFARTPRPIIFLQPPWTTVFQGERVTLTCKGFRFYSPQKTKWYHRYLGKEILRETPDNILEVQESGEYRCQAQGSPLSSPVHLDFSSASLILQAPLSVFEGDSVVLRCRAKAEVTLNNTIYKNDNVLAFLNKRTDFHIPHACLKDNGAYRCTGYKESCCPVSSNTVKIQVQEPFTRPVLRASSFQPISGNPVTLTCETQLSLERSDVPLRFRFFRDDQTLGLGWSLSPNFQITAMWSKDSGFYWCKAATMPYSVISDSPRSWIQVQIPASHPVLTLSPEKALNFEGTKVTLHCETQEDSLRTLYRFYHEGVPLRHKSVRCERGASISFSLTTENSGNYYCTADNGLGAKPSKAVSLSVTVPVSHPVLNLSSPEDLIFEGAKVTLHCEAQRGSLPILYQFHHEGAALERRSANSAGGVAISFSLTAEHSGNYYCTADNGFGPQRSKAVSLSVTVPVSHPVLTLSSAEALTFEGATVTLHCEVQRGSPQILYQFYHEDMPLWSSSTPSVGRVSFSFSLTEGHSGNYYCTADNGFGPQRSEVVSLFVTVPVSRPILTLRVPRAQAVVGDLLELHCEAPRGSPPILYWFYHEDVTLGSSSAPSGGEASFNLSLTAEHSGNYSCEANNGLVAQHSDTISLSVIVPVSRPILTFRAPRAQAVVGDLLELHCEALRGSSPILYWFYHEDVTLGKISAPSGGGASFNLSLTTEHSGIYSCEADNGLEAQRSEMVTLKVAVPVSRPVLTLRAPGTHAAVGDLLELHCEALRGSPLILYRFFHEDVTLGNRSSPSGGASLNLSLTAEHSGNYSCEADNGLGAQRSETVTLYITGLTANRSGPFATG
# assay.protocol: SPR (BIACORE), IgG captured via anti-human IgG, FcRH5 protein fragment as analyte (100 and 500 nM)
pKd: −log10 of the molar value.
endpoint: pKd

>  <binder>
hu1G7.v1 heavy chain W52Y with light chain of hu1G7.v1.5 (antibody, V domains shown, human IgG) VH: EVQLVESGPGLVKPSETLSLTCTVSGFSLTRFGVHWVRQPPGKGLEWLGVIYRGGSTDYNAAFMSRLTISKDNSKNQVSLKLSSVTAADTAVYYCSNHYYGSSDYALDNWGQGTLVTVSS VL: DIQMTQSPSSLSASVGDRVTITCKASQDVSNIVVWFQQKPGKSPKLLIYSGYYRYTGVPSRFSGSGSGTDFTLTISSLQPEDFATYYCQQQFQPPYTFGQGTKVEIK

>  <value>
6.75

$$$$
>  <binder>
hu1G7.v1 heavy chain W52L with light chain of hu1G7.v1.7 (antibody, V domains shown, human IgG) VH: EVQLVESGPGLVKPSETLSLTCTVSGFSLTRFGVHWVRQPPGKGLEWLGVILRGGSTDYNAAFMSRLTISKDNSKNQVSLKLSSVTAADTAVYYCSNHYYGSSDYALDNWGQGTLVTVSS VL: DIQMTQSPSSLSASVGDRVTITCKASQDVRNLVVWFQQKPGKAPKLLIYSGYYRYTGVPSRFSGSGSGTDFTLTISSLQPEDFATYYCQQHYQPPYTFGQGTKVEIK

>  <value>
6.89

$$$$
>  <binder>
hu1G7.v1 heavy chain M64I with light chain of hu1G7.v1.7 (antibody, V domains shown, human IgG) VH: EVQLVESGPGLVKPSETLSLTCTVSGFSLTRFGVHWVRQPPGKGLEWLGVIWRGGSTDYNAAFISRLTISKDNSKNQVSLKLSSVTAADTAVYYCSNHYYGSSDYALDNWGQGTLVTVSS VL: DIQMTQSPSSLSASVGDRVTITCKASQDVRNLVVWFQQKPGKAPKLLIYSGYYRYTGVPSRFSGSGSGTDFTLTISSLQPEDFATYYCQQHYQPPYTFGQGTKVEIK

>  <value>
8.59

$$$$
